// reported fraction ligated for each item listed
B1: F1*; the commonest letter at each place (parent)
chain: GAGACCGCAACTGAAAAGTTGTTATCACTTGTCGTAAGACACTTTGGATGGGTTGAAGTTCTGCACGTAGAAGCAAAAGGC

Variants of: B1
Test: fraction ligated after 30 min (ligated reads / total reads); higher = more ligase activity
Settings: with F1*sub RNA substrate (template-directed ligation), 42 °C

| RESIDUE CHANGE | fraction ligated |
| --- | --- |
| T29G G31C | 0.804 |
| C40T T43C | 0.795 |
| C28A A48G | 0.784 |
| A41C A48G | 0.783 |
| T29C C33T | 0.816 |
| C40T A56G | 0.801 |
| C28A A41G | 0.779 |
| C28G G31C | 0.81 |
| T23C A36T | 0.823 |
| C28G T32G | 0.783 |
| T23C G55T | 0.786 |
| C33T A48G | 0.814 |
| A24T A37G | 0.792 |
| A37T A41C | 0.785 |
| T23A T44C | 0.784 |
| T29A A57T | 0.813 |
| G34C A56C | 0.779 |
| C28A G34C | 0.779 |
| G34T G38T | 0.82 |
